- target_or_system: DNA gyrase (Escherichia coli) (UniProt P0AES6+P0AES4)
- test_summary: Inhibitory activity against Escherichia coli DNA gyrase (represented as MNEC)
- Format: protein-complex assay
// MNEC lookup, one value per entry
Give the number; µg/mL is assumed, so skip it.

Use these answered entries as a reference point.
CN(C)n1c(=O)cc2n(C3CC3)c3cc(N4CCNCC4)c(F)cc3n2c1=O
0.5
CNn1c(=O)cc2n(C3CC3)c3cc(N4CCNCC4)c(F)cc3n2c1=O
0.1
O=c1cc2n(C3CC3)c3cc(N4CCNCC4)c(F)cc3n2c(=O)n1O
1
CN1CCN(c2cc3c(cc2F)n2c(=O)n(O)c(=O)cc2n3C2CC2)CC1
1
Nn1c(=O)cc2n(C3CC3)c3cc(N4CCNCC4)c(F)cc3n2c1=O
0.2

Item: "CCn1c2cc(N3CCN(C)CC3)c(F)cc2n2c(=O)n(O)c(=O)cc12" | MNEC: 1

Item: "CCn1c2cc(N3CCN(C)CC3)c(F)cc2n2c(=O)[nH]c(=O)cc12" | MNEC: 2

Item: "CN1CCN(c2cc3c(cc2F)n2c(=O)[nH]c(=O)cc2n3C2CC2)CC1" | MNEC: 1

Item: "CCn1c2cc(N3CCNCC3)c(F)cc2c2c(N)ncnc21" | MNEC: 5

Item: "CCn1c2cc(N3CCNCC3)c(F)cc2n2c(=O)[nH]c(=O)cc12" | MNEC: 1

Item: "CCn1c2cc(N3CCNCC3)c(F)cc2n2c(=O)n(O)c(=O)cc12" | MNEC: 1

Item: "O=c1cc2n(C3CC3)c3cc(N4CCNCC4)c(F)cc3n2c(=O)[nH]1" | MNEC: 0.2
